FYI, the data here is from patent US5387709A.

Tested on: platelets of guinea-pig
Assay: Inhibition of the platelet aggregation induced by U46619 (BORN test), guinea-pig platelets
Assay type: cell-based
Conditions: Cavia porcellus, Platelet, read-out: PLATELET AGGREGATION GUINEA-PIG IC 50
assayEndpoint: IC50 (nM)
// units = nM; emit number, no label

Task: Quick one: IC50 for N#Cc1ccc(S(=O)(=O)NCC2(Cc3ccc(CC(=O)O)cc3)CCCC2)cc1 ?
Result: 690

Task: Item under review: O=C(O)Cc1ccc(CC2(CNS(=O)(=O)c3cccc([N+](=O)[O-])c3)CCCC2)cc1 . Reported IC50?
Result: 6300

Task: What does the data say about its IC50? Entry: O=C(O)Cc1ccc(C2(CNS(=O)(=O)c3ccc(Cl)cc3)CC2)cc1
Result: 1800

Task: For the molecule shown here, O=C(O)Cc1ccc(CC2(CNS(=O)(=O)c3ccc(Cl)cc3)CCOCC2)cc1 , give the reported IC50.
Result: 310

Task: Return reported IC50; argument: O=C(O)Cc1ccc(CC2(CNS(=O)(=O)c3ccc(C(F)(F)F)cc3)CCCC2)cc1
Result: 2900

Task: Quick check: IC50 of O=C(O)Cc1ccc(CC2(CNS(=O)(=O)c3ccccc3Cl)CCCC2)cc1 ?
Result: 1800

Task: Please give the measured IC50 for this molecule: CC(=O)Nc1ccc(S(=O)(=O)NCC2(Cc3ccc(CC(=O)O)cc3)CCCC2)cc1
Result: 1300

Task: Form field: reported IC50 of O=C1CCC(c2ccc(CC3(CNS(=O)(=O)c4ccc(Cl)cc4)CCCC3)cc2)=NN1
Result: 2500

====

System: platelets of guinea-pig
Assay: Inhibition of the platelet aggregation induced by U46619 (BORN test), guinea-pig platelets
Format: cell-based
Conditions: Cavia porcellus, Platelet, read-out: PLATELET AGGREGATION GUINEA-PIG IC 50
pIC50: −log10 of the molar value.
Kindly state pIC50 for each of the entries shown.

Task: pIC50 of O=C(O)Cc1ccc(CC2(CNS(=O)(=O)c3cccc4ccccc34)CCCC2)cc1 [Example 96] on platelets of guinea-pig?
Result: 6.12

Task: Field: pIC50 (platelets of guinea-pig). Entry: O=C(O)Cc1ccc(OC2CCCC2NS(=O)(=O)c2ccc(Cl)cc2)cc1 (centres unmarked) [Example 9]
Result: < 4.70

Task: Tell me reported pIC50 for CC(C)(C)c1ccc(S(=O)(=O)NCC2(Cc3ccc(CC(=O)O)cc3)CCCC2)cc1 [Example 61] , tested with platelets of guinea-pig.
Result: < 5.30

Task: Find the measured pIC50: item NC(=O)Cc1ccc(CC2(CNS(=O)(=O)c3ccc(Cl)cc3)CCCC2)cc1 [Example 75] , target or system platelets of guinea-pig.
Result: < 5.30

Task: Could you share what pIC50 was measured for Cc1cnc2c(S(=O)(=O)NCC3(Cc4ccc(CC(=O)O)cc4)CCCC3)cccc2c1 [Example 66] , tested on platelets of guinea-pig?
Result: < 5.30

Task: Lab request: please report pIC50 under test system platelets of guinea-pig for O=C(O)Cc1ccc(CC2(CNS(=O)(=O)c3ccc(C4CCCCC4)cc3)CCCC2)cc1 [Example 99]
Result: < 5.30

Task: Give pIC50 (platelets of guinea-pig) of the following molecule: O=C(O)Cc1ccc(CC2(CNS(=O)(=O)c3ccc(Cl)c(Cl)c3)CCCC2)cc1 [Example 26]
Result: 5.51

Task: Give platelets of guinea-pig pIC50 for COc1ccc(S(=O)(=O)NCC2(Cc3ccc(CC(=O)O)cc3)CCCC2)cc1 [Example 65]
Result: 6.46
